test system: MDA-MB-468 breast; test: NCI tumour cell line growth inhibition, 48 h; in the data active means GI50 below about 0.43 µM; inactive means the rest
Possible outcomes: active, inactive

compound: CC1(C)N=C(N)N=C(N)N1c1cccc(CCCCc2cccc(S(=O)(=O)F)c2)c1
target: MDA-MB-468 breast
cat: inactive
--
compound: Cc1cccc(NC(=O)CCc2ccc(N3C(N)=NC(N)=NC3(C)C)cc2)c1
target: MDA-MB-468 breast
cat: inactive
--
compound: C=C1C(=O)O[C@H]2[C@H]1CC/C(CNC(=O)Cc1c[nH]c3ccccc13)=C\CC[C@@]1(C)O[C@@H]21
target: MDA-MB-468 breast
cat: inactive
--
compound: Nc1c(C(=O)c2cccc(CCCN3CCOCC3)c2)cnn1-c1ccc(F)cc1
target: MDA-MB-468 breast
cat: inactive
--
compound: CCNC(=O)[C@@H]1CCCN2C(=O)CC[C@H](NC(=O)[C@H](Cc3ccc(OP(=O)(O)O)cc3)NC(C)=O)C(=O)N12
target: MDA-MB-468 breast
cat: inactive
--
compound: COc1ccc(C(=O)/C=C/c2ccc(Cl)c(C(F)(F)F)c2)cc1S(N)(=O)=O
target: MDA-MB-468 breast
cat: inactive
--
compound: COc1cc(NS(C)(=O)=O)ccc1Nc1c2ccc([N+](=O)[O-])cc2nc2c(C)cccc12
target: MDA-MB-468 breast
cat: active
--
compound: O=C(Nc1nc2ccc([N+](=O)[O-])cc2s1)Nc1cc(Cl)ccc1I
target: MDA-MB-468 breast
cat: inactive
--
compound: C=C1CC[C@@H]2[C@]3(C)COC(c4cn(-c5ccccc5)nc4-c4cccc([N+](=O)[O-])c4)O[C@@H]3CC[C@@]2(C)[C@@H]1C/C=C1/C(=O)OC[C@H]1O (stereo partly specified)
target: MDA-MB-468 breast
cat: inactive
--
compound: N#Cc1cnc2ccc(-c3cnc(N)nc3)cc2c1N1CCc2cc(F)c(Cl)cc21
target: MDA-MB-468 breast
cat: active
--
compound: OC(c1cccc(-n2ccc(C(F)(F)F)n2)c1)c1cnccc1NC1CCCCCC1 (stereo unspecified)
target: MDA-MB-468 breast
cat: inactive

###

tested on: SW-620 colon; experiment: NCI tumour cell line growth inhibition, 48 h; in the data active = GI50 below about 0.43 µM; inactive = the rest
Outcome codes: active, inactive

structure_as_smiles: COc1ccc(C(=O)/C=C/c2ccc(Cl)c(C(F)(F)F)c2)cc1S(N)(=O)=O
cat: inactive
//
structure_as_smiles: O=C(Nc1nc2ccc([N+](=O)[O-])cc2s1)Nc1cc(Cl)ccc1I
cat: inactive
//
structure_as_smiles: COc1ccc(-c2nc3ccc(-c4nnc(SCC(=O)Nc5ccc(/C(C)=N\O)cc5)o4)cc3[nH]2)cc1
cat: inactive
//
structure_as_smiles: COC(=O)CCn1c(-c2ccc(-n3cc(-c4ccc(O[C@H]5O[C@@H]6OC7(C)CC[C@H]8[C@H](C)CC[C@@H]([C@H]5C)[C@@]68OO7)cc4)nn3)cc2)nc2ccccc21
cat: active
